- assay_system: T1, Human CD137 ECD (human)
- T1 construct: also called 4-1BB
- T1 sequence (chain, as listed by the source limits assumed): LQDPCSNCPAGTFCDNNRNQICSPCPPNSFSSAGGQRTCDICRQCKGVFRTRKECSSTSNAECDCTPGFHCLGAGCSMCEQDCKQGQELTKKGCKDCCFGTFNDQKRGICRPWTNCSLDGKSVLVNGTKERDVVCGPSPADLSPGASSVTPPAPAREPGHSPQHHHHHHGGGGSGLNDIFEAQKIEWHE
- protocol_text: single mutant vs template dBBDu183H
value_type: fold change of affinity (fold)
Field: numeric (fold). Do not append units.

Examples with answers:
binder: H183/L072 VH F27S (antibody, name in Kabat numbering, V domains shown) VH: QVQLVESGGGLVQPGRSLRLSCAASGSTFSNAWMHWVRQAPGKGLEWVAQIKDKGNAYAAYYAPSVKGRFTISRDDSKNSIYLQMNSLKTEDTAVYYCHYVHYASASTVLPAFGVDAWGQGTTVTVSS VL: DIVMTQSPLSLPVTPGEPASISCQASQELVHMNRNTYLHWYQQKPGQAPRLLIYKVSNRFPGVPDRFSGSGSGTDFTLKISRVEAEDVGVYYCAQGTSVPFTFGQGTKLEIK
obs_value: 0.3
--
binder: H183/L072 VH V100iI (antibody, name in Kabat numbering, V domains shown) VH: QVQLVESGGGLVQPGRSLRLSCAASGFTFSNAWMHWVRQAPGKGLEWVAQIKDKGNAYAAYYAPSVKGRFTISRDDSKNSIYLQMNSLKTEDTAVYYCHYVHYASASTVLPAFGIDAWGQGTTVTVSS VL: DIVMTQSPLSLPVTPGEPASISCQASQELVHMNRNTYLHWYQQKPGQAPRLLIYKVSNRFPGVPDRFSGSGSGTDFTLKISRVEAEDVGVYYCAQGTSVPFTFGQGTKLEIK
obs_value: 1.1
--
binder: H183/L072 VH K64P (antibody, name in Kabat numbering, V domains shown) VH: QVQLVESGGGLVQPGRSLRLSCAASGFTFSNAWMHWVRQAPGKGLEWVAQIKDKGNAYAAYYAPSVPGRFTISRDDSKNSIYLQMNSLKTEDTAVYYCHYVHYASASTVLPAFGVDAWGQGTTVTVSS VL: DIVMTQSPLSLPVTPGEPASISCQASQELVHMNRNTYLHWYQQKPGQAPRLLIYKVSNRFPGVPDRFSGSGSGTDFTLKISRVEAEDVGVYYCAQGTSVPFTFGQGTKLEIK
obs_value: 0.7

Problem: Could you share which fold change of affinity value was measured for H183/L072 VH Y59S (antibody, name in Kabat numbering, V domains shown) VH: QVQLVESGGGLVQPGRSLRLSCAASGFTFSNAWMHWVRQAPGKGLEWVAQIKDKGNAYAAYSAPSVKGRFTISRDDSKNSIYLQMNSLKTEDTAVYYCHYVHYASASTVLPAFGVDAWGQGTTVTVSS VL: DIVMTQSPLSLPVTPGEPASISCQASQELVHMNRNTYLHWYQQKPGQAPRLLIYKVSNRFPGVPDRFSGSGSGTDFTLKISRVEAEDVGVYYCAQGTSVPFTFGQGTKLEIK ?
Result: 0.8

Problem: What value of measured fold change of affinity is listed for H183/L072 VH A98M (antibody, name in Kabat numbering, V domains shown) VH: QVQLVESGGGLVQPGRSLRLSCAASGFTFSNAWMHWVRQAPGKGLEWVAQIKDKGNAYAAYYAPSVKGRFTISRDDSKNSIYLQMNSLKTEDTAVYYCHYVHYMSASTVLPAFGVDAWGQGTTVTVSS VL: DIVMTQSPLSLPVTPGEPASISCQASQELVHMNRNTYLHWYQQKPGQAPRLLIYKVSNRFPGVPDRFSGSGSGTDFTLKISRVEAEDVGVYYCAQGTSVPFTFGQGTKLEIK ?
Result: 0

Problem: Reported fold change of affinity for H183/L072 VH G52cQ (antibody, name in Kabat numbering, V domains shown) VH: QVQLVESGGGLVQPGRSLRLSCAASGFTFSNAWMHWVRQAPGKGLEWVAQIKDKQNAYAAYYAPSVKGRFTISRDDSKNSIYLQMNSLKTEDTAVYYCHYVHYASASTVLPAFGVDAWGQGTTVTVSS VL: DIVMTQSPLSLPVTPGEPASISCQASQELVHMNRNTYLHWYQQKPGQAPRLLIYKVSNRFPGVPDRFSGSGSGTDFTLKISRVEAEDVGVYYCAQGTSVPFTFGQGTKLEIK : what is it?
Result: 0.7

Problem: Quick one: fold change of affinity of H183/L072 VH F100gL (antibody, name in Kabat numbering, V domains shown) VH: QVQLVESGGGLVQPGRSLRLSCAASGFTFSNAWMHWVRQAPGKGLEWVAQIKDKGNAYAAYYAPSVKGRFTISRDDSKNSIYLQMNSLKTEDTAVYYCHYVHYASASTVLPALGVDAWGQGTTVTVSS VL: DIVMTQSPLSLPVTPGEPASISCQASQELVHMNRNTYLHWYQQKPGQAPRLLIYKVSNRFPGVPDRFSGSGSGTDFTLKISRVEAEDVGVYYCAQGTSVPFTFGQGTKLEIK ?
Result: 1.2

Problem: Fill in: fold change of affinity of H183/L072 VH G100hL (antibody, name in Kabat numbering, V domains shown) VH: QVQLVESGGGLVQPGRSLRLSCAASGFTFSNAWMHWVRQAPGKGLEWVAQIKDKGNAYAAYYAPSVKGRFTISRDDSKNSIYLQMNSLKTEDTAVYYCHYVHYASASTVLPAFLVDAWGQGTTVTVSS VL: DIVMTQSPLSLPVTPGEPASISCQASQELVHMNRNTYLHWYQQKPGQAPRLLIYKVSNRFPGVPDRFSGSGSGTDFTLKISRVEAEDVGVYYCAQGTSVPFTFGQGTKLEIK is ___
Result: 0

Problem: Endpoint output: fold change of affinity of H183/L072 VH K64A (antibody, name in Kabat numbering, V domains shown) VH: QVQLVESGGGLVQPGRSLRLSCAASGFTFSNAWMHWVRQAPGKGLEWVAQIKDKGNAYAAYYAPSVAGRFTISRDDSKNSIYLQMNSLKTEDTAVYYCHYVHYASASTVLPAFGVDAWGQGTTVTVSS VL: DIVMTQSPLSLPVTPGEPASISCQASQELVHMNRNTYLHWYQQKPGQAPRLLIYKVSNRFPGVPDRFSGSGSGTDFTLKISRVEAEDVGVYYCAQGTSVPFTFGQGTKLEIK . Value?
Result: 1.2

Problem: Please look up its fold change of affinity: H183/L072 VH A56K (antibody, name in Kabat numbering, V domains shown) VH: QVQLVESGGGLVQPGRSLRLSCAASGFTFSNAWMHWVRQAPGKGLEWVAQIKDKGNAYKAYYAPSVKGRFTISRDDSKNSIYLQMNSLKTEDTAVYYCHYVHYASASTVLPAFGVDAWGQGTTVTVSS VL: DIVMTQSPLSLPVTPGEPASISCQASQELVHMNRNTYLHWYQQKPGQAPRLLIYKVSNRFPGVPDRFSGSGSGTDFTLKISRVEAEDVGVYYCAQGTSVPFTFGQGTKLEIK
Result: 0.8
